System: T47D cells
EXPERIMENTAL PROTOCOL: MTT cell viability, E2-depleted T47D cells
Type: cell-based, human
STUDY CONDITIONS: 10 μM, 24 h, absence of E2
QUANTITY: reduction of cell viability

Examples from the recorded data:
COMPOUND	reduction of cell viability
COc1ccc(C[C@@H](CO)[C@H](CO)Cc2ccc(OC)c(OC)c2)cc1OC	reduced cell viability
COc1ccc(C[C@H]2COC[C@@H]2Cc2ccc(O)c(O)c2)cc1OC	reduced cell viability
COc1ccc(C[C@H]2COC(O)[C@@H]2Cc2ccc(OC)c(OC)c2)cc1OC (mixture of isomers)	16.6%
COc1ccc(C[C@@H](COS(C)(=O)=O)[C@H](COS(C)(=O)=O)Cc2ccc3c(c2)OCO3)cc1OC	reduced cell viability
COc1ccc(C[C@@H](C)[C@H](C)Cc2ccc3c(c2)OCO3)cc1OC	reduced cell viability

# input compound: COc1ccc(C[C@H]2COC[C@@H]2Cc2ccc3c(c2)OCO3)cc1OC ; wanted: its reduction of cell viability
55.6%

# input compound: COc1ccc(C[C@H]2C(=O)OC[C@@H]2Cc2ccc3c(c2)OCO3)cc1OC [Compound 1, (−)-Bursehernin] ; wanted: its reduction of cell viability
reduced cell viability

# input compound: COc1ccc(C[C@@H](C)[C@H](C)Cc2ccc(O)c(O)c2)cc1OC ; wanted: its reduction of cell viability
reduced cell viability
